Where do the numbers come from? From ChEMBL document CHEMBL2406934.

assay summary: Plasma concentration in rat at 1000 mg/kg, po administered for 10 days measured 24 hrs post last dose
Type: ADME, organism-based
Set-up: dose 1000 mg/kg, route oral
measure name: concentration at 24 h (µg/mL)
Number only, in µg/mL; omit the unit.

Challenge: Return reported concentration at 24 h. Input compound: CCN(CC)c1ncc(N(C(C)C)S(C)(=O)=O)c(N[C@@H](Cc2ccc(OC(=O)N3CCCC3)cc2)C(=O)O)n1
Response given: 100

---

assay summary: Plasma concentration in rat at 1000 mg/kg, po after 24 hrs
Assay type: ADME, organism-based
Set-up: dose 1000 mg/kg, route oral
measure name: concentration at 24 h

Challenge: Entry CCN(CC)c1ncc(N(C(C)C)S(C)(=O)=O)c(N[C@@H](Cc2ccc(OC(=O)N3CCCC3)cc2)C(=O)O)n1 needs its concentration at 24 h filled in; supply it.
Response given: 71.4 µg/mL
